Attribution: ChEMBL document CHEMBL4138123

System: ACHN
ASSAY PROTOCOL: Cytotoxicity against human ACHN cells assessed as cell growth at 100 uM after 48 hrs by sulforhodamine B assay relative to control
Type: functional
EXPERIMENTAL CONDITIONS: read-out: Activity
growth at 100 µM reference
Report only the number, with the unit % understood.

Here is how some compounds turned out for growth at 100 µM.
[[record]]
compound = "COc1ccc(C(=O)/C=C/c2cc(-c3ccc(OC)c(OC)c3)n[nH]2)cc1OC"
observable = "growth at 100 µM"
number = -60

[[record]]
compound = "COc1cc(C(=O)/C=C/c2cc(-c3cc(OC)c(OC)c(OC)c3)n[nH]2)cc(OC)c1OC"
observable = "growth at 100 µM"
number = -98

[[record]]
compound = "COc1cc(-c2cc(/C=C/C(=O)c3ccc4c(c3)OCO4)[nH]n2)cc(OC)c1OC"
observable = "growth at 100 µM"
number = -69


Let us move to another entry and its growth at 100 µM.
Task: Value lookup for growth at 100 µM; key = COc1ccc(-c2cc(/C=C/C(=O)c3ccc(N)cc3)[nH]n2)cc1OC
Result: -95

---

growth at 0.1 µM values by entry
Tested on: HCC 2998
ASSAY PROTOCOL: Cytotoxicity against human HCC2998 cells assessed as cell growth at 0.1 uM after 48 hrs by sulforhodamine B assay relative to control
Assay type: functional
EXPERIMENTAL CONDITIONS: HCC 2998, 48 h, read-out: Activity
Write the value in % as a bare number.

Example cases with answers are listed next.
[[record]]
compound = "COc1ccc(-c2cc(/C=C/C(=O)c3cc(OC)c(OC)c(OC)c3)[nH]n2)cc1OC"
unit_of_measure = "%"
number = 100

[[record]]
compound = "COc1cc(-c2cc(/C=C/C(=O)c3ccc(N)cc3)[nH]n2)cc(OC)c1OC"
unit_of_measure = "%"
number = 108

[[record]]
compound = "COc1cc(C(=O)/C=C/c2cc(-c3ccc4c(c3)OCO4)n[nH]2)cc(OC)c1OC"
unit_of_measure = "%"
number = 100

[[record]]
compound = "COc1ccc(C(=O)/C=C/c2cc(-c3cc(OC)c(OC)c(OC)c3)n[nH]2)cc1"
unit_of_measure = "%"
number = 97

[[record]]
compound = "COc1cc(-c2cc(/C=C/C(=O)c3ccc(F)c(F)c3)[nH]n2)cc(OC)c1OC"
unit_of_measure = "%"
number = 92

[[record]]
compound = "COc1ccc(-c2cc(/C=C/C(=O)c3ccc(OC)c(OC)c3)[nH]n2)cc1"
unit_of_measure = "%"
number = 105


Kindly consider the entry below.
Task: // lookup growth at 0.1 µM for COc1cc(C(=O)/C=C/c2cc(-c3cc(OC)c(OC)c(OC)c3)n[nH]2)cc(OC)c1OC
Result: 101

---

Test system: MCF7
ASSAY PROTOCOL: Cytotoxicity against human MCF7 cells assessed as growth inhibition after 48 hrs by MTT assay
Assay type: functional, cell-based
EXPERIMENTAL CONDITIONS: MCF7, 48 h
Reported pIC50 values for the following molecules.
pIC50 is a log-scale quantity: -log10 of the concentration expressed in molar.

[[record]]
molecule = "COc1cc(-c2cc(/C=C/C(C)=O)[nH]n2)cc(OC)c1OC"
observable = "pIC50"
number = 4.70

[[record]]
molecule = "COc1ccc(/C=C\\c2cc(OC)c(OC)c(OC)c2)cc1O [COMBRETASTATIN A4]"
observable = "pIC50"
number = 6.92

[[record]]
molecule = "O=C(/C=C/c1cc(-c2ccc3c(c2)OCO3)n[nH]1)c1ccccc1"
observable = "pIC50"
number = 5.10

[[record]]
molecule = "COc1ccc(C(=O)/C=C/c2cc(-c3ccc4c(c3)OCO4)n[nH]2)cc1"
observable = "pIC50"
number = 5.46

[[record]]
molecule = "COc1cc(-c2cc(/C=C/C(=O)c3ccc(Cl)cc3)[nH]n2)cc(OC)c1OC"
observable = "pIC50"
number = 4.94

[[record]]
molecule = "COc1ccc(-c2cc(/C=C/C(=O)c3cc(OC)c(OC)c(OC)c3)[nH]n2)cc1OC"
observable = "pIC50"
number = 5.96

[[record]]
molecule = "COc1cc(-c2cc(/C=C/C(=O)c3ccccc3)[nH]n2)cc(OC)c1OC"
observable = "pIC50"
number = 5.68

[[record]]
molecule = "COc1ccc(-c2cc(/C=C/C(=O)c3ccc4c(c3)OCO4)[nH]n2)cc1OC"
observable = "pIC50"
number = 5.82

[[record]]
molecule = "COc1ccc(C(=O)/C=C/c2cc(-c3cc(OC)c(OC)c(OC)c3)n[nH]2)cc1OC"
observable = "pIC50"
number = 6.29

[[record]]
molecule = "COc1cc(-c2cc(/C=C3\\Cc4ccccc4C3=O)[nH]n2)cc(OC)c1OC"
observable = "pIC50"
number = 5.32


# input for lookup
Task: Which pIC50 is reported with MCF7 for this entry: COc1cc2c(cc1OC)C(=O)/C(=C/c1cc(-c3cc(OC)c(OC)c(OC)c3)n[nH]1)C2 ?
Result: 5.70

---

Test system: SN12C
ASSAY PROTOCOL: Cytotoxicity against human SN12C cells assessed as growth inhibition after 48 hrs by sulforhodamine B assay
Type: functional
The entries below are paired with their reported GI50.

// known answers, use as guide
[[record]]
compound = "COc1ccc(-c2cc(/C=C/C(=O)c3ccc4c(c3)OCO4)[nH]n2)cc1OC"
result = "4960 nM"

[[record]]
compound = "COc1ccc(-c2cc(/C=C/C(=O)c3cc(OC)c(OC)c(OC)c3)[nH]n2)cc1OC"
result = "1770 nM"

[[record]]
compound = "COc1ccc(-c2cc(/C=C/C(=O)c3ccc(OC)c(OC)c3)[nH]n2)cc1"
result = "1640 nM"


Okay, now this compound:
Task: Would you mind telling me what GI50 value was observed for COc1cc2c(cc1OC)C(=O)/C(=C/c1cc(-c3ccc4c(c3)OCO4)n[nH]1)C2 ?
Result: 1590 nM

---

Listed below: growth at 0.01 µM values for each entry.
Tested on: COLO 205
ASSAY PROTOCOL: Cytotoxicity against human COLO205 cells assessed as cell growth at 0.01 uM after 48 hrs by sulforhodamine B assay relative to control
Assay type: functional
EXPERIMENTAL CONDITIONS: COLO 205, 48 h, read-out: Activity
Report the value in % with no unit label.

[[record]]
compound = "COc1ccc(-c2cc(/C=C/C(=O)c3cc(OC)c(OC)c(OC)c3)[nH]n2)cc1OC"
unit_of_measure = "%"
number = 99


Task: Lab note: need growth at 0.01 µM with COLO 205 for entry COc1ccc(-c2cc(/C=C/C(=O)c3ccc(N)cc3)[nH]n2)cc1 , please look it up.
Result: 97

Task: Return growth at 0.01 µM measured with COLO 205 given this molecule: COc1cc(-c2cc(/C=C/C(=O)c3ccc(N)cc3)[nH]n2)cc(OC)c1OC
Result: 93

Task: Lab request: please report growth at 0.01 µM under test system COLO 205 for COc1ccc(-c2cc(/C=C/C(=O)c3ccc(N)cc3)[nH]n2)cc1OC
Result: 92

Task: # get_value(readout= growth at 0.01 µM, system= COLO 205) for COc1cc(C(=O)/C=C/c2cc(-c3ccc4c(c3)OCO4)n[nH]2)cc(OC)c1OC
Result: 100

---

Each entry below carries its reported GI50.
Test system: SK-MEL-28
ASSAY PROTOCOL: Cytotoxicity against human SK-MEL-28 cells assessed as growth inhibition after 48 hrs by sulforhodamine B assay
Assay type: functional
EXPERIMENTAL CONDITIONS: SK-MEL-28, 48 h

[[record]]
compound = "COc1cc2c(cc1OC)C(=O)/C(=C/c1cc(-c3ccc4c(c3)OCO4)n[nH]1)C2"
result = "1890 nM"


Task: # query: GI50 | item COc1ccc(-c2cc(/C=C/C(=O)c3ccc(N)cc3)[nH]n2)cc1 | system: SK-MEL-28
Result: 1870 nM

Task: Identify the measured GI50 of COc1ccc(C(=O)/C=C/c2cc(-c3ccc(OC)c(OC)c3)n[nH]2)cc1OC for SK-MEL-28.
Result: 1820 nM

Task: Hello, I am looking for reported GI50 with SK-MEL-28 for COc1cc(-c2cc(/C=C/C(=O)c3ccc(N)cc3)[nH]n2)cc(OC)c1OC . Could you help?
Result: 1860 nM

---

Overview of reported growth at 0.1 µM across a group of compounds:
System: HL-60(TB)
ASSAY PROTOCOL: Cytotoxicity against human HL-60(TB) cells assessed as cell growth at 0.1 uM after 48 hrs by sulforhodamine B assay relative to control
Type: functional
EXPERIMENTAL CONDITIONS: HL-60, 48 h, read-out: Activity
Give a bare numeral; the unit % is implied.

Sample answers from the record:
[[record]]
compound = "COc1ccc(-c2cc(/C=C/C(=O)c3ccc(N)cc3)[nH]n2)cc1"
target_of_assay = "HL-60(TB)"
observable = "growth at 0.1 µM"
unit_of_measure = "%"
number = 97

[[record]]
compound = "COc1cc(C(=O)/C=C/c2cc(-c3cc(OC)c(OC)c(OC)c3)n[nH]2)cc(OC)c1OC"
target_of_assay = "HL-60(TB)"
observable = "growth at 0.1 µM"
unit_of_measure = "%"
number = 101

[[record]]
compound = "COc1cc(C(=O)/C=C/c2cc(-c3ccc4c(c3)OCO4)n[nH]2)cc(OC)c1OC"
target_of_assay = "HL-60(TB)"
observable = "growth at 0.1 µM"
unit_of_measure = "%"
number = 98

[[record]]
compound = "COc1cc(-c2cc(/C=C/C(=O)c3ccc4c(c3)OCO4)[nH]n2)cc(OC)c1OC"
target_of_assay = "HL-60(TB)"
observable = "growth at 0.1 µM"
unit_of_measure = "%"
number = 95

[[record]]
compound = "COc1ccc(C(=O)/C=C/c2cc(-c3cc(OC)c(OC)c(OC)c3)n[nH]2)cc1OC"
target_of_assay = "HL-60(TB)"
observable = "growth at 0.1 µM"
unit_of_measure = "%"
number = 94

[[record]]
compound = "COc1ccc(-c2cc(/C=C/C(=O)c3cc(OC)c(OC)c(OC)c3)[nH]n2)cc1OC"
target_of_assay = "HL-60(TB)"
observable = "growth at 0.1 µM"
unit_of_measure = "%"
number = 93

[[record]]
compound = "COc1cc2c(cc1OC)C(=O)/C(=C/c1cc(-c3ccc4c(c3)OCO4)n[nH]1)C2"
target_of_assay = "HL-60(TB)"
observable = "growth at 0.1 µM"
unit_of_measure = "%"
number = 95

[[record]]
compound = "COc1cc(-c2cc(/C=C/C(=O)c3ccc(F)c(F)c3)[nH]n2)cc(OC)c1OC"
target_of_assay = "HL-60(TB)"
observable = "growth at 0.1 µM"
unit_of_measure = "%"
number = 93


Let us move to another entry and its growth at 0.1 µM.
Task: Please state recorded growth at 0.1 µM (tested on HL-60(TB)) of COc1cc(-c2cc(/C=C/C(=O)c3ccc(Cl)c(Cl)c3)[nH]n2)cc(OC)c1OC
Result: 100
